# TARGET: NEP (Rattus norvegicus)
# Sequence (P07861 1-750): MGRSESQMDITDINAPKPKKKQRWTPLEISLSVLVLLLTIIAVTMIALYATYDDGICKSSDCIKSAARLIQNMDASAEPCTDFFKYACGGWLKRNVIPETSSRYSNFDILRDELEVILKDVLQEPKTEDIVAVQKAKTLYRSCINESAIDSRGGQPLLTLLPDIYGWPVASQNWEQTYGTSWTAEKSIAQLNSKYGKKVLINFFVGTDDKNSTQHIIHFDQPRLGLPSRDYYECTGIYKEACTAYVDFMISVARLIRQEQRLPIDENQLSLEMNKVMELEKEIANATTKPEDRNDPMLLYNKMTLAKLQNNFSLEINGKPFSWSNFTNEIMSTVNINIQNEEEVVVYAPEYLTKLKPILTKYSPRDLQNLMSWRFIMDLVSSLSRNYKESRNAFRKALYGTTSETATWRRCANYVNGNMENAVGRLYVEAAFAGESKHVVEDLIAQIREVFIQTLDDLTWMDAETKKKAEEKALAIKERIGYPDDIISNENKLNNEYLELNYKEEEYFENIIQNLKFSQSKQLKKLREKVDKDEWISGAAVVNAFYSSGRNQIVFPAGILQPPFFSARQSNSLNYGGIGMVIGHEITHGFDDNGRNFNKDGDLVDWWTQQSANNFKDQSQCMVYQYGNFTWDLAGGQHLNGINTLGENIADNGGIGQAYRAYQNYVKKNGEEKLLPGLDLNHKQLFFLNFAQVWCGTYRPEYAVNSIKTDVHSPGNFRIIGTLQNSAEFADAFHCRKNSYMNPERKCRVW
# EXPERIMENT SUMMARY: NEP inhibition activity (Experiment F-1)
# Assay type: biochemical
# Parameters: membrane fraction prepared from rat renal cortex; from tissue; host or cells: rat renal cortex, membrane fraction (method of Booth and Kenny)
# CONDITION CONTEXT: rat renal cortex membrane fraction
EXPERIMENTAL READOUT: pIC50
The scale used: pIC50 is minus the common logarithm of the concentration in molar units.

Input: Suppose we examine the compound O=C(N[C@H]1Cc2ccccc2[C@H]2CCC[C@@H](C(=O)O)N2C1=O)[C@@H](S)Cc1ccccc1 [Comp. cpd. E-1, reference compound] ; what pIC50 value has been reported?
Output: 7.87

Input: So what's the measured pIC50 for this one? O=C(O)CNC(=O)[C@@H](CS)Cc1ccc2c(c1)OCO2 [Comp cpd. F-1, reference compound]
Output: 7.77

Input: For the compound CC[C@H](S)C(=O)N[C@H]1CCC[C@H]2SC[C@@H](C(=O)O)N2C1=O [Example F-24] , what pIC50 is on record?
Output: 8.10

Input: Give the measured pIC50 of CC(C)[C@H](S)C(=O)N[C@H]1CCC[C@H]2SC[C@@H](C(=O)O)N2C1=O [Example F-25] .
Output: 6.58

Input: Which pIC50 reading was recorded for the compound O=C(N[C@H]1CCC[C@H]2SC[C@@H](C(=O)O)N2C1=O)[C@@H](CS)Cc1ccccc1 [Example F-18] ?
Output: 8.25

Input: Data request, read-out pIC50, for CC[C@H](C)[C@H](S)C(=O)N[C@H]1CCC[C@H]2SC[C@@H](C(=O)O)N2C1=O [Example C-8]
Output: 8.04

Input: // query pIC50 value for entry CC[C@@H](C)[C@H](S)C(=O)N[C@H]1CCC[C@H]2SC[C@@H](C(=O)O)N2C1=O [Example F-23]
Output: 6.92

Input: Requested field: pIC50. Item: O=C(N[C@H]1CCC[C@H]2SC[C@@H](C(=O)O)N2C1=O)[C@@H](S)Cc1cccs1 [Example F-22]
Output: 8.05

Input: Name the reported pIC50 value associated with the compound COc1ccc(C[C@H](S)C(=O)N[C@H]2CCC[C@H]3SC[C@@H](C(=O)O)N3C2=O)cc1 [Example F-19]
Output: 6.98

Input: Recorded pIC50 of O=C(N[C@H]1CCC[C@H]2SC[C@@H](C(=O)O)N2C1=O)[C@@H](S)Cc1ccc(-c2ccccc2)cc1 [Example F-20] , please.
Output: 7.25

Input: What does the data say about its pIC50? Entry: O=C(N[C@H]1CCC[C@H]2SC[C@@H](C(=O)O)N2C1=O)[C@@H](S)Cc1ccccc1 [Example F-17]
Output: 7.95

Input: What does the data say about its pIC50? Entry: O=C(N[C@H]1CCC[C@H]2SC[C@@H](C(=O)O)N2C1=O)[C@@H](S)Cc1ccc(F)cc1 [Example F-14]
Output: 7.65
